molecular target: recombinant human NK1 receptors expressed in Chinese Hamster Ovary (CHO) cell membranes (Homo sapiens); construct: expressed in transfected cells; host or cells: Chinese Hamster Ovary (CHO) cells, membrane preparation; assay: NK1-receptor binding affinity, displacement of [3H]-substance P; settings: average of at least two determinations, [3H]substance P displacement, read-out: pki (negative logarithm of the inhibition constant Ki) (converted)
Structures can show the parent of a compound that is named as a salt.
assay.metric: Ki (nM)

Below, each entry is followed by its recorded Ki result.
# compound, Ki (nM)
records = [
    ("Cc1cc(F)ccc1[C@H]1C[C@@H](N2CCN(C(=O)C(C)C)CC2)CCN1C(=O)N(C)[C@H](C)c1cc(C(F)(F)F)cc(C(F)(F)F)c1 [Example 14, hydrochloride]", 0.1),
    ("CC(=O)N1CCN([C@@H]2CCN(C(=O)N(C)Cc3cc(C(F)(F)F)cc(C(F)(F)F)c3)[C@@H](c3ccc(F)cc3C)C2)CC1 [Example 7a, hydrochloride]", 0.708),
]

[A] CC(=O)N1CCN([C@H]2CCN(C(=O)N(C)[C@H](C)c3cc(C(F)(F)F)cc(C(F)(F)F)c3)[C@@H](c3ccc(F)cc3)C2)CC1 [Example 19, hydrochloride]
[B] Cc1cc(F)ccc1[C@H]1C[C@@H](N2CCN(C(=O)N(C)C)CC2)CCN1C(=O)N(C)Cc1cc(C(F)(F)F)cc(C(F)(F)F)c1 [Example 15, hydrochloride]
Which value of Ki is greater, the one for A or the one for B ? In your reply, give the label of the chosen option.
A
(A: 0.417 nM, B: 0.0457 nM)

###

molecular target: recombinant human NK1 receptors expressed in Chinese Hamster Ovary (CHO) cell membranes (Homo sapiens, UniProt P25103); construct: expressed in transfected cells; host or cells: Chinese Hamster Ovary (CHO) cells, membrane preparation; experiment: NK1-receptor binding affinity, displacement of [3H]-substance P; conditions: average of at least two determinations, [3H]substance P displacement, read-out: pki (negative logarithm of the inhibition constant Ki) (converted)
Sequence (P25103 whole entry): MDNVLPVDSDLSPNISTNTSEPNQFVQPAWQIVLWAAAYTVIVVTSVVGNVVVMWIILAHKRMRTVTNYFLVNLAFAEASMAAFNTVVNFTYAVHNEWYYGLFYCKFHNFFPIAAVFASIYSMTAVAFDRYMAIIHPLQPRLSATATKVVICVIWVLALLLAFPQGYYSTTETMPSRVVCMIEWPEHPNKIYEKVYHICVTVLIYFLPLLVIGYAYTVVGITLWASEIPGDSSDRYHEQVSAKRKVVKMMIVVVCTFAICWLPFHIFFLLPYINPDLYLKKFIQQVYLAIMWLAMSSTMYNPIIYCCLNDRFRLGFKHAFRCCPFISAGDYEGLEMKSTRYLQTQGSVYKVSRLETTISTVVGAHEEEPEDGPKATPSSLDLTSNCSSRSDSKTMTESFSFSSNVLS
Structures can show the parent of a compound that is named as a salt.
assay.metric: Ki (pM)

# compound, Ki (pM)
rows = [
    ("Cc1cc(F)ccc1[C@H]1C[C@@H](N2CCN(C(=O)C3CC3)CC2)CCN1C(=O)N(C)[C@H](C)c1cc(C(F)(F)F)cc(C(F)(F)F)c1.Cl [Example 12, hydrochloride]", 123),
]

[I] Cc1cc(F)ccc1[C@H]1CC(N2CCN(C)CC2)CCN1C(=O)N(C)Cc1cc(C(F)(F)F)cc(C(F)(F)F)c1.Cl.Cl (mixture of isomers) [Example 10, dihydrochloride]
[II] Cc1cc(F)ccc1[C@H]1CC(N2CCN(C)CC2)CCN1C(=O)N(C)[C@H](C)c1cc(C(F)(F)F)cc(C(F)(F)F)c1 (mixture of isomers) [Example 8, hydrochloride]
[III] CC(=O)N1CCN([C@H]2CCN(C(=O)N(C)Cc3cc(C(F)(F)F)cc(C(F)(F)F)c3)[C@@H](c3ccc(F)cc3C)C2)CC1.Cl [Example 7b, hydrochloride]
[IV] CNC(=O)N1CCN([C@H]2CCN(C(=O)N(C)Cc3cc(C(F)(F)F)cc(C(F)(F)F)c3)[C@@H](c3ccc(F)cc3C)C2)CC1 [Example 16, hydrochloride]
List by increasing Ki. List each label, following the requested order.
IV, III, I, II
